Target: human GPR119 (Homo sapiens)
Construct: expression vector for human GPR119 cDNA (Acc. No. NP_848566); expressed in transfected cells
Assay: AlphaScreen cAMP assay in MIN6 cells stably transfected with human GPR119
Assay type: cell-based
Conditions: Min-6/hGPR119 cells, stimulation of intracellular cAMP, 45 minutes incubation at room temperature
Method: The compounds of formula I according to the invention modulate the activity of the G-protein-coupled receptor GPR119. The effect of the compounds on the activation of GPR119 and on the stimulation of intracellular cAMP concentration is determined using the AlphaScreen cAMP Assay Kit (Cat. No. #6760625R) made by PerkinElmer. MIN6 cells [Miyazaki J et al. Endocrinology. 1990 July; 127(1):126-32] are stably transfected with an expression vector for human GPR119 cDNA (Acc. No. NP_848566). […]
pEC50: −log10 of the molar value.
readout: pEC50

P = CS(=O)(=O)N1CC=C(c2cc3c(cn2)O[C@H](C2CCN(CC4(C(F)(F)F)CC4)CC2)C3)CC1
Q = C[C@]1(C2CCN(CC3(C(F)(F)F)CC3)CC2)Cc2cc(-c3ccc(S(C)(=O)=O)cc3)ncc2O1
Query: For the pair P and Q , which member has the lower pEC50 number? Give the label under which the chosen entry appears.
Reply: P

I = CC(C)(F)CN1CCC([C@@H]2Cc3cc(C4=CCN(S(C)(=O)=O)CC4)ncc3O2)CC1
II = CS(=O)(=O)N1CC=C(c2cc3c(cn2)OC(C2CCN(CC4(C(F)(F)F)CC4)CC2)C3)CC1 (racemic)
Query: Smaller pEC50 value? Options are I and II Write down the label attached to your selection.
Reply: I
(I: 6.07, II: 7.68)

I = CC(C)(F)CN1CCC([C@@]2(C)Cc3cc(C4=CCN(S(C)(=O)=O)CC4)ncc3O2)CC1
II = CC(C)(F)CN1CCC([C@H]2Cc3cc(C4=CCN(S(C)(=O)=O)CC4)ncc3O2)CC1
III = CC(C)(F)CN1CCC(C2Cc3cc(C4CCN(S(C)(=O)=O)CC4)ncc3O2)CC1 (centres unmarked)
IV = CC(C)(F)CN1CCC(C2Cc3cc(-c4ccc(CS(C)(=O)=O)cc4)ncc3O2)CC1 (centres unmarked)
Query: Please produce an ascending ranking of these molecules based on pEC50. Please list each label once, in the requested order.
Reply: III, IV, II, I
(III: 6.18, IV: 6.67, II: 7.34, I: 7.60)

I = CC(C)(F)CN1CCC(C2Cc3cc(C4=CCN(S(C)(=O)=O)CC4)ncc3O2)CC1 (centres unmarked)
II = CC(C)(F)CN1CCC([C@@]2(C)Cc3cc(-c4ccc(S(C)(=O)=O)cc4)ncc3O2)CC1
III = CS(=O)(=O)N1CC=C(c2cc3c(cn2)O[C@@H](C2CCN(CC4(C(F)(F)F)CC4)CC2)C3)CC1
Query: Could you please sort these 3 entries by pEC50 from high to low? Reply: labels, ordered per the request.
Reply: III, I, II

* * *

Target: human GPR119 (Homo sapiens, UniProt Q8TDV5)
Construct: expression vector for human GPR119 cDNA (Acc. No. NP_848566)
Sequence (Q8TDV5 whole entry): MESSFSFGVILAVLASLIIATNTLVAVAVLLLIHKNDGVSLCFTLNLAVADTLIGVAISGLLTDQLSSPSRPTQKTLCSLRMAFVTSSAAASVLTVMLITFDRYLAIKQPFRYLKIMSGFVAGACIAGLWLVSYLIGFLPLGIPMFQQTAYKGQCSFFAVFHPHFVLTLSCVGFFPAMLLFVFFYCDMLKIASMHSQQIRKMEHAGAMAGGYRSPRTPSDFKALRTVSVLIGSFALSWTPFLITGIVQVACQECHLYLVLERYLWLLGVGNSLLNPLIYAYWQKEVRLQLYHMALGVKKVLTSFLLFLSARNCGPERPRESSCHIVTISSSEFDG
Assay: AlphaScreen cAMP assay in MIN6 cells stably transfected with human GPR119
Conditions: Min-6/hGPR119 cells, stimulation of intracellular cAMP, 45 minutes incubation at room temperature
pEC50: −log10 of the molar value.
readout: pEC50

I = CS(=O)(=O)Cc1ccc(-c2cc3c(cn2)OC(C2CCN(CC4(C(F)(F)F)CC4)CC2)C3)cc1 (stereo not drawn)
II = CC(C)(F)CN1CCC([C@H]2Cc3cc(-c4ccc(S(C)(=O)=O)cc4)ncc3O2)CC1
III = C[C@]1(C2CCN(CC3(C(F)(F)F)CC3)CC2)Cc2cc(C3=CCN(S(C)(=O)=O)CC3)ncc2O1
IV = CC(C)(F)CN1CCC(C2Cc3cc(-c4ccc(S(C)(=O)=O)cc4)ccc3O2)CC1 (stereo not drawn)
Query: Please give the order of these compounds when sorted by pEC50, largest value leading. Rank the items, then write their labels in that order.
Reply: III, I, II, IV

1 = CC(C)(F)CN1CCC(C2Cc3cc(-c4ccc(CS(C)(=O)=O)cc4F)ncc3O2)CC1 (stereo not drawn)
2 = CS(=O)(=O)Cc1ccc(-c2cc3c(cn2)OC(C2CCN(CC4(C(F)(F)F)CC4)CC2)C3)c(F)c1 (stereo not drawn)
Query: Endpoint returns whichever of 1 and 2 has the numerically higher pEC50. API: response body contains the label of the selected item.
Reply: 2
